# testedOn: Lysine-specific demethylase 4A (Homo sapiens) (UniProt O75164)
# Sequence (O75164 whole entry, looked up, the tested form may be a part): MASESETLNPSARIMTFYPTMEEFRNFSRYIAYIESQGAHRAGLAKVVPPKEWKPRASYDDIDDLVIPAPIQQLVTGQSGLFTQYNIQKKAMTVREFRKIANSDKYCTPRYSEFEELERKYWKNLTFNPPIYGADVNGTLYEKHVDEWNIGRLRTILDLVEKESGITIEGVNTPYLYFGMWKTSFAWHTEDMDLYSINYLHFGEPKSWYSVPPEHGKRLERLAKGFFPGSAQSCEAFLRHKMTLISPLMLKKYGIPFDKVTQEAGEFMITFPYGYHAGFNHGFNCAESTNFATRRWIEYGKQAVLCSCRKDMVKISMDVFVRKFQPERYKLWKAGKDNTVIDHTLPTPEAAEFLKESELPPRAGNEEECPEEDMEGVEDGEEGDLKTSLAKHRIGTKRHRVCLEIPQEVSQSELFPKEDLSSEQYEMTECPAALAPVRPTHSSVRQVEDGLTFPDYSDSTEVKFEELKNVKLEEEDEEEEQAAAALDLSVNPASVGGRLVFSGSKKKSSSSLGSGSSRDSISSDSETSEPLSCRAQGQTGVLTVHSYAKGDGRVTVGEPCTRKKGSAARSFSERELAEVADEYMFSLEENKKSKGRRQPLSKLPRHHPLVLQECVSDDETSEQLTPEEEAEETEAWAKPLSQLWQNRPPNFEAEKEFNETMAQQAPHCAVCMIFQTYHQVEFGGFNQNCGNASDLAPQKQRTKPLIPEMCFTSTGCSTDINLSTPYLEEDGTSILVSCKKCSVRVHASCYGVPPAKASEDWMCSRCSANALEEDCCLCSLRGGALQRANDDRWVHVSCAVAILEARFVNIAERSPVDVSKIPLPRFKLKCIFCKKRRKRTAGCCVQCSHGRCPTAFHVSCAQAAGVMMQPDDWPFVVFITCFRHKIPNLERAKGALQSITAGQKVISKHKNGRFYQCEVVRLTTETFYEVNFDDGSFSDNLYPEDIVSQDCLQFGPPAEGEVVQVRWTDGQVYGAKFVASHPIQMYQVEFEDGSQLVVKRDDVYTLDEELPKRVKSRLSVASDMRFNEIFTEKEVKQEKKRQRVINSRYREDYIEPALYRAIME
# assayMethodText: qHTS Assay for Inhibitors of JMJD2A-Tudor Domain; further: nearly all actives have a fitted effect of over 50% in size
# conditionLabel: AlphaScreen JMJD2A-Tudor / H3K4me3 peptide binding; series mostly up to 114 µM
# Excerpt: JMJD2A is a jumonji-domain-containing lysine demethylase that uses Fe(II) together with 2-OG to effect oxidative demethylation of histones. Methylation is one of many […] modification that affect epigenetic transcription. […] A quantitative high throughput AlphaScreen has been developed to identify small molecule inhibitors based on a protocol published by NCGC and SGC [4]. […] [2] Yasgar, et al. Compound Management for Quantitative High-Throughput Screening. […]
Screen size: about 390,000 compounds; about 17,000 (4.4%) were called active. Not shown: some 8% with an inconclusive outcome. The call rests on the fitted dose curve; in most records, active means well fitted inhibition curve with a large enough effect; inconclusive means small, poorly fitted or top-dose-only effect; inactive means no such curve, though single readings can be large or run the other way. This excerpt belongs to a sample that is enriched for actives.
Result category, one only: true (1) for active, false (0) for inactive

Ask: Short answer needed: outcome of this test for O=c1nc2s/c(=C\c3ccco3)c(=O)n2nc1Cc1ccccc1 ?
Result: true (1)

Ask: Please let me know the test result on file for CSCCC(NC(=O)c1ccco1)C(=O)Nc1cc(C)ccn1 (stereo unspecified) .
Result: false (0)

Ask: Which outcome was entered for the compound Cc1ccc(CN2C(=O)N/C(=C/c3cc(C)n(-c4ccccn4)c3C)C2=O)cc1 in this test?
Result: false (0)

Ask: What outcome does the record of this test show for O=C1c2ccccc2C2=Nc3ccccc3SC(c3ccccc3F)C12 (stereo unspecified) ?
Result: true (1)

Ask: Short answer needed: outcome of this test for Cc1ccc(Cl)cc1N1CCN(C(=O)C2CCC(CNS(=O)(=O)c3cccs3)CC2)CC1 (stereo unspecified) ?
Result: false (0)

Ask: For CCCN1C(=O)C(O)(CC(=O)c2ccc(CC)cc2)c2cc(Br)ccc21 (stereo unspecified) , which call appears in the assay record?
Result: false (0)

Ask: State the result this test recorded for Cc1cc(C)cc(NC(c2nnc(-c3cccc(F)c3)o2)c2ccc(F)cc2Cl)c1 (stereo unspecified) .
Result: false (0)

Ask: Name the outcome recorded for O=C(CN1C(=O)c2cccc3cccc(c23)C1=O)N1CCCCC1 in the assay.
Result: false (0)

Ask: Hi team, can someone confirm the assay call for CCn1c(/C=C/c2ccc([N+](=O)[O-])o2)nc2ccccc2c1=O ?
Result: false (0)

Ask: How was COc1ccc(S(=O)(=O)NCc2cccn2Cc2cccc(C)c2)cc1 classified in this test?
Result: false (0)

Ask: Could you check what this test reported for O=S(=O)(Nc1ccc(O)c2ccccc12)c1ccc(OC(F)(F)F)cc1 ?
Result: true (1)

Ask: For Nc1ncc(S(=O)(=O)Nc2ccc(OC(F)(F)F)cc2)cn1 , what call appears in the results of this test?
Result: false (0)

Ask: Assay outcome for O=C(Nc1ccccc1F)C(c1ccccc1)N1Cc2ccccc2C1=O (stereo unspecified) : what was it?
Result: false (0)

Ask: Kindly provide the recorded test outcome for the following compound: Cc1cnc(NC(=O)Cn2cnc3c2c(=O)n(C)c(=O)n3C)s1
Result: false (0)

Ask: Call for entry COc1ccc(CCNS(=O)(=O)c2cc(-c3cc(C)no3)ccc2C)cc1OC :
Result: false (0)

Ask: Hey, what did the test say about CCc1ccc(S(=O)(=O)Nc2ccc(C)c(NS(C)(=O)=O)c2)cc1 ?
Result: false (0)

Ask: State the result this test recorded for Cc1oc2c(C)c3oc(=O)c(CC(=O)N[C@@H](CC(C)C)C(=O)N[C@@H](Cc4ccccc4)C(=O)O)c(C)c3cc2c1C .
Result: true (1)

Ask: For Cc1cnc(NC(=O)c2ccccn2)s1 , which call appears in the assay record?
Result: true (1)

Ask: In this assay, the call recorded for CCN(C(=O)Cn1c(=O)nc(-c2ccccc2)c2cc(Cl)ccc21)c1cccc(C)c1 was what?
Result: false (0)

Ask: Query: recorded result category for O=C1COc2ccc(S(=O)(=O)Nc3ccc(OC(F)(F)F)cc3)cc2N1 in this test
Result: false (0)

Ask: Please indicate how the test categorized CCOC(=O)c1cccc(NS(=O)(=O)c2cc(-c3cnc(C)o3)ccc2OC)c1 .
Result: false (0)
